test system: HT-29; assay: Inhibition of TNF-alpha-induced adhesion of BCECF-labeled human U937 cells to human HT-29 cells at 10 uM preincubated for 1 hr followed by TNF-alpha challenge measured after 3 hrs by fluorescence microscopic method relative to control; format: functional
measurementName: inhibition at 10 µM (%)
Numbers only, in %.

Dear reader, for each entry below, please note its inhibition at 10 µM.
1. O=C1/C(=C/c2cccc(Cl)c2)Oc2ccccc21
2. O=C1/C(=C/c2ccccc2O)Cc2cc(O)ccc21
3. O=C1/C(=C/c2ccccc2C(F)(F)F)Cc2ccccc21
4. O=C1/C(=C/c2cccc(Cl)c2)Oc2cc(O)ccc21
5. O=C1/C(=C/c2ccc(Cl)cc2)Cc2c(O)cccc21

[40, 32.1, 42.8, 45.9, 10.6]
